Values compiled from paper PMC10611828.

# Assay details: In vivo biodistribution and clearance in PC-3 tumor-bearing mice
# Test conditions: male, NMRI-Foxn1 nu/nu, mouse, blood, iv, total radioactivity; 1 h p.i., i.v.; read-out: % uptake blood
Experimental endpoint: tissue uptake at 1 h (%ID/g)
Dear colleague, please return just the value in %ID/g, with no unit written.

Task item: Reported tissue uptake at 1 h, compound CC(C)C[C@H](NC(=O)C[C@H](O)[C@H](CC(C)C)NC(=O)[C@H](Cc1c[nH]cn1)NC(=O)CNC(=O)[C@@H](NC(=O)[C@H](C)NC(=O)[C@H](Cc1c[nH]c2ccccc12)NC(=O)[C@H](CCC(N)=O)NC(=O)[C@@H](Cc1ccccc1)NC(=O)CN1CCC(NC(=O)CN2CCN(CC(=O)O)CCN(CC(=O)O)CCN(CC(=O)O)CC2)CC1)C(C)C)C(N)=O [[^177Lu]Lu-RM2, metal not drawn] : ____
Reply: 0.3

Consider now this further compound.
Task item: Reported tissue uptake at 1 h, compound CC(C)CC(CC(C)C)NC(=O)[C@H](Cc1cnc[nH]1)NC(=O)CNC(=O)[C@@H](NC(=O)[C@H](C)NC(=O)[C@H](Cc1c[nH]c2ccccc12)NC(=O)[C@H](CCC(N)=O)NC(=O)[C@@H](Cc1ccccc1)NC(=O)COCC(=O)Nc1ccc(CNC(=O)CN2CCN(CC(=O)O)CCN(CC(=O)O)CCN(CC(=O)O)CC2)cc1)C(C)C [[^177Lu]Lu-NeoB, metal not drawn] : ____
Reply: 1.15
